Catalogue of Ames test: ratio of number of colonies to control values
Test system: strains TA98
Assay type: cell-based
Conditions: 20 μg/plate, without S-9
Answer using only a numeral; do not append any unit.

molecule	result
Nc1ccc(N=Nc2ccc(Oc3cccc(Oc4ccc(N=Nc5c(S(=O)(=O)O)cc6cc(S(=O)(=O)O)c(N=Nc7ccccc7)c(O)c6c5N)cc4)c3)cc2)c(O)c1	0.76
Nc1ccc(N=Nc2ccc(Oc3ccc(Oc4ccc(N=Nc5c(S(=O)(=O)O)cc6cc(S(=O)(=O)O)c(N=Nc7ccccc7)c(O)c6c5N)cc4)cc3)cc2)c(O)c1	0.88
Nc1c(N=Nc2ccc(Oc3ccc(Oc4ccc(N=Nc5ccc(O)cc5O)cc4)cc3)cc2)cc(S(=O)(=O)O)c2ccc(N=Nc3ccccc3)c(O)c12	1.03
Cc1cc(-c2ccc(N=Nc3c(S(=O)(=O)O)cc4cc(S(=O)(=O)O)c(N=Nc5ccc(S(=O)(=O)O)cc5)c(O)c4c3N)c(C)c2)ccc1N=Nc1ccc(O)cc1O [compound 3, reference compound]	0.92

Proceeding to the next molecule to report its Ames test: ratio of number of colonies to control.
Memo: CCC(C)c1ccc(N=Nc2c(S(=O)(=O)O)cc3cc(S(=O)(=O)O)c(N=Nc4ccc(Oc5cccc(Oc6ccc(N=Nc7ccc(O)cc7O)cc6)c5)cc4)c(N)c3c2O)cc1 (centres unmarked) , reported Ames test: ratio of number of colonies to control: 0.76

###

Test system: strains TA98
Format: cell-based
Conditions: 78 μg/plate, with S-9
Listing: Ames test: ratio of number of colonies to control of selected molecules
Write the number on its own, no unit after it.

molecule	result
Nc1ccc2c(O)c(N=Nc3ccccc3)c(S(=O)(=O)O)cc2c1N=Nc1ccc(Oc2ccc(Oc3ccc(N=Nc4ccc(O)cc4O)cc3)cc2)cc1	1.64
Cc1cc(-c2ccc(N=Nc3c(S(=O)(=O)O)cc4cc(S(=O)(=O)O)c(N=Nc5ccccc5)c(O)c4c3N)c(C)c2)ccc1N=Nc1ccc(N)cc1N [compound 1, reference compound]	2.35
Cc1cc(-c2ccc(N=Nc3c(S(=O)(=O)O)cc4cc(S(=O)(=O)O)c(N=Nc5ccc(S(=O)(=O)O)cc5)c(O)c4c3N)c(C)c2)ccc1N=Nc1ccc(O)cc1O [compound 3, reference compound]	2.24
CCC(C)c1ccc(N=Nc2c(S(=O)(=O)O)cc3cc(S(=O)(=O)O)c(N=Nc4ccc(Oc5cccc(Oc6ccc(N=Nc7ccc(O)cc7O)cc6)c5)cc4)c(N)c3c2O)cc1 (centres unmarked)	1.79
Nc1c(N=Nc2ccc(Oc3ccc(Oc4ccc(N=Nc5ccc(O)cc5O)cc4)cc3)cc2)c(S(=O)(=O)O)cc2cc(S(=O)(=O)O)c(N=Nc3ccccc3)c(O)c12	1.04

Documented Ames test: ratio of number of colonies to control of Nc1c(N=Nc2ccc(Oc3cccc(Oc4ccc(N=Nc5ccc(O)cc5O)cc4)c3)cc2)c(S(=O)(=O)O)cc2cc(S(=O)(=O)O)c(N=Nc3ccccc3)c(O)c12 : 1.19

###

Test system: strains TA98
Format: cell-based
Settings: 1250 μg/plate, with S-9
Assign Satisfied to entries whose Ames test: ratio of number of colonies to control meets or exceeds 1; assign Not satisfied to the rest.

Sample answers from the record:
molecule	label
Nc1c(N=Nc2ccc(Oc3ccc(Oc4ccc(N=Nc5ccc(O)cc5O)cc4)cc3)cc2)c(S(=O)(=O)O)cc2cc(S(=O)(=O)O)c(N=Nc3ccccc3)c(O)c12	Satisfied
Nc1ccc(N=Nc2ccc(S(=O)(=O)c3ccc(N=Nc4c(S(=O)(=O)O)cc5cc(S(=O)(=O)O)c(N=Nc6ccccc6)c(O)c5c4N)cc3)cc2)c(O)c1 [compound 2, reference compound]	Satisfied
CCC(C)c1ccc(N=Nc2c(S(=O)(=O)O)cc3cc(S(=O)(=O)O)c(N=Nc4ccc(Oc5ccc(Oc6ccc(N=Nc7ccc(O)cc7O)cc6)cc5)cc4)c(N)c3c2O)cc1 (stereo not drawn)	Not satisfied
Cc1cc(-c2ccc(N=Nc3c(S(=O)(=O)O)cc4cc(S(=O)(=O)O)c(N=Nc5ccc(S(=O)(=O)O)cc5)c(O)c4c3N)c(C)c2)ccc1N=Nc1ccc(O)cc1O [compound 3, reference compound]	Satisfied

Proceed to the following item.
Problem: I'd appreciate it if you could say whether Nc1c(N=Nc2ccc(Oc3cccc(Oc4ccc(N=Nc5ccc(O)cc5O)cc4)c3)cc2)c(S(=O)(=O)O)cc2cc(S(=O)(=O)O)c(N=Nc3ccccc3)c(O)c12 has Ames test: ratio of number of colonies to control at least equal to 1.
Result: Satisfied

###

Measured Ames test: ratio of number of colonies to control, listed per entry for reference.
Test system: strains TA98
Format: cell-based
Details: 20 μg/plate, with S-9
# answer = number (no unit)

molecule	target	result
Cc1cc(-c2ccc(N=Nc3c(S(=O)(=O)O)cc4cc(S(=O)(=O)O)c(N=Nc5ccccc5)c(O)c4c3N)c(C)c2)ccc1N=Nc1ccc(N)cc1N [compound 1, reference compound]	strains TA98	1.92
Nc1ccc(N=Nc2ccc(Oc3ccc(Oc4ccc(N=Nc5c(S(=O)(=O)O)cc6cc(S(=O)(=O)O)c(N=Nc7ccccc7)c(O)c6c5N)cc4)cc3)cc2)c(O)c1	strains TA98	1.04

Value of Ames test: ratio of number of colonies to control reported for the molecule Nc1ccc(N=Nc2ccc(Oc3ccc(Oc4ccc(N=Nc5c(S(=O)(=O)O)cc6cc(S(=O)(=O)O)c(N=Nc7ccc(S(=O)(=O)O)cc7)c(O)c6c5N)cc4)cc3)cc2)c(O)c1 is 0.94

###

Measured Ames test: ratio of number of colonies to control, listed per entry.
Tested on: strains TA98
Format: cell-based
Conditions: 1250 μg/plate, without S-9
In your answer, state the number alone without any accompanying words.

Answered cases to consult:
compound	result
Cc1ccccc1N=Nc1c(S(=O)(=O)O)cc2cc(S(=O)(=O)O)c(N=Nc3ccc(Oc4ccc(Oc5ccc(N=Nc6ccc(O)cc6O)cc5)cc4)cc3)c(N)c2c1O	0.80
CCC(C)c1ccc(N=Nc2c(S(=O)(=O)O)cc3cc(S(=O)(=O)O)c(N=Nc4ccc(Oc5cccc(Oc6ccc(N=Nc7ccc(O)cc7O)cc6)c5)cc4)c(N)c3c2O)cc1 (stereo not drawn)	1.10

As a next step, examine the compound that follows.
The compound identified as Nc1ccc(N=Nc2ccc(Oc3ccc(Oc4ccc(N=Nc5c(S(=O)(=O)O)cc6cc(S(=O)(=O)O)c(N=Nc7ccc(S(=O)(=O)O)cc7)c(O)c6c5N)cc4)cc3)cc2)c(O)c1 registered its Ames test: ratio of number of colonies to control at 1.03

###

Below, each entry is listed alongside its reported Ames test: ratio of number of colonies to control.
System: strains TA98
Format: cell-based
Details: 1250 μg/plate, with S-9
// response body must contain only the number

compound	target	result
Nc1c(N=Nc2ccc(Oc3ccc(Oc4ccc(N=Nc5ccc(O)cc5O)cc4)cc3)cc2)cc(S(=O)(=O)O)c2ccc(N=Nc3ccccc3)c(O)c12	strains TA98	1.09
CCC(C)c1ccc(N=Nc2c(S(=O)(=O)O)cc3cc(S(=O)(=O)O)c(N=Nc4ccc(Oc5cccc(Oc6ccc(N=Nc7ccc(O)cc7O)cc6)c5)cc4)c(N)c3c2O)cc1 (stereo not drawn)	strains TA98	0.76

Next, consider the following compound.
Observed Ames test: ratio of number of colonies to control, strains TA98, Nc1ccc2c(O)c(N=Nc3ccccc3)c(S(=O)(=O)O)cc2c1N=Nc1ccc(Oc2ccc(Oc3ccc(N=Nc4ccc(O)cc4O)cc3)cc2)cc1 : 0.64

###

Ames test: ratio of number of colonies to control values for the molecules below.
Test system: strains TA98
Assay type: cell-based
Conditions: 5000 μg/plate, with S-9
The answer should be a number; do not append a unit.

> print(dat)
                            molecule.smiles  result
1  Nc1c(N=Nc2ccc(Oc3cccc(Oc4ccc(N=Nc5ccc(O)cc5O)cc4)c3)cc2)c(S(=O)(=O)O)cc2cc(S(=O)(=O)O)c(N=Nc3ccccc3)c(O)c12    1.27
2  Nc1ccc(N=Nc2ccc(Oc3cccc(Oc4ccc(N=Nc5cc(S(=O)(=O)O)c6cc(S(=O)(=O)O)c(N=Nc7ccccc7)c(O)c6c5N)cc4)c3)cc2)c(O)c1    0.53

Consider the additional molecule presented here.
Note to self: Ames test: ratio of number of colonies to control of Nc1c(N=Nc2ccc(Oc3ccc(Oc4ccc(N=Nc5ccc(O)cc5O)cc4)cc3)cc2)c(S(=O)(=O)O)cc2cc(S(=O)(=O)O)c(N=Nc3ccccc3)c(O)c12 with strains TA98 was 0.57

###

Tested on: strains TA98
Assay type: cell-based
Conditions: 5000 μg/plate, without S-9
In this section we review reported Ames test: ratio of number of colonies to control values for a set of compounds.
Would you mind answering with just the numeric figure?

Below are worked cases with known answers.
compound	result
Cc1ccccc1N=Nc1c(S(=O)(=O)O)cc2cc(S(=O)(=O)O)c(N=Nc3ccc(Oc4ccc(Oc5ccc(N=Nc6ccc(O)cc6O)cc5)cc4)cc3)c(N)c2c1O	1.00
Nc1ccc(N=Nc2ccc(Oc3ccc(Oc4ccc(N=Nc5c(S(=O)(=O)O)cc6cc(S(=O)(=O)O)c(N=Nc7ccc(S(=O)(=O)O)cc7)c(O)c6c5N)cc4)cc3)cc2)c(O)c1	1.12
Cc1cc(-c2ccc(N=Nc3c(S(=O)(=O)O)cc4cc(S(=O)(=O)O)c(N=Nc5ccc(S(=O)(=O)O)cc5)c(O)c4c3N)c(C)c2)ccc1N=Nc1ccc(O)cc1O [compound 3, reference compound]	0.96

Ames test: ratio of number of colonies to control measured on CCC(C)c1ccc(N=Nc2c(S(=O)(=O)O)cc3cc(S(=O)(=O)O)c(N=Nc4ccc(Oc5ccc(Oc6ccc(N=Nc7ccc(O)cc7O)cc6)cc5)cc4)c(N)c3c2O)cc1 (centres unmarked) = 0.91

Note to self: Ames test: ratio of number of colonies to control recorded for Nc1c(N=Nc2ccc(Oc3ccc(Oc4ccc(N=Nc5ccc(O)cc5O)cc4)cc3)cc2)c(S(=O)(=O)O)cc2cc(S(=O)(=O)O)c(N=Nc3ccccc3)c(O)c12 was 0.68

Origin of measurements: patent US5336763A
